System: SMN protein
Assay: SMN protein assay (MSD) in SMA patient fibroblasts GM03813
Format: cell-based
Conditions: Fibroblast, 48 h, SMA patient fibroblasts GM03813, 48 hours; read-out: SMN2 Potency - Protein: Protein FL EC50 (average)
Measured EC50, listed per entry for reference.
Observable: EC50

                                   molecule  reported_measurement
0  CN(c1nnc(-c2ccc(-c3cnn(C)c3)cc2O)s1)[C@@H]1C[C@H]2CC[C@H](N2)[C@@H]1F [Compound E-3B]         0.01 to 15 nM
1  CN(c1nnc(-c2ccc(-c3cnn(CF)c3)cc2O)s1)[C@@H]1C[C@H]2CC[C@H](N2)[C@@H]1F (single isomer, unassigned) [Compound E-10B]         0.01 to 15 nM
2  CN(c1nnc(-c2cc(F)c(-c3cnn(C)c3)cc2O)s1)[C@H]1C[C@@H]2CC[C@@H](N2)[C@H]1F (single isomer, unassigned) [Compound E-9A]          51 to 100 nM
